Molecular target: hERG (Homo sapiens)
Construct: gene KCNH2
Sequence (Q12809 whole entry): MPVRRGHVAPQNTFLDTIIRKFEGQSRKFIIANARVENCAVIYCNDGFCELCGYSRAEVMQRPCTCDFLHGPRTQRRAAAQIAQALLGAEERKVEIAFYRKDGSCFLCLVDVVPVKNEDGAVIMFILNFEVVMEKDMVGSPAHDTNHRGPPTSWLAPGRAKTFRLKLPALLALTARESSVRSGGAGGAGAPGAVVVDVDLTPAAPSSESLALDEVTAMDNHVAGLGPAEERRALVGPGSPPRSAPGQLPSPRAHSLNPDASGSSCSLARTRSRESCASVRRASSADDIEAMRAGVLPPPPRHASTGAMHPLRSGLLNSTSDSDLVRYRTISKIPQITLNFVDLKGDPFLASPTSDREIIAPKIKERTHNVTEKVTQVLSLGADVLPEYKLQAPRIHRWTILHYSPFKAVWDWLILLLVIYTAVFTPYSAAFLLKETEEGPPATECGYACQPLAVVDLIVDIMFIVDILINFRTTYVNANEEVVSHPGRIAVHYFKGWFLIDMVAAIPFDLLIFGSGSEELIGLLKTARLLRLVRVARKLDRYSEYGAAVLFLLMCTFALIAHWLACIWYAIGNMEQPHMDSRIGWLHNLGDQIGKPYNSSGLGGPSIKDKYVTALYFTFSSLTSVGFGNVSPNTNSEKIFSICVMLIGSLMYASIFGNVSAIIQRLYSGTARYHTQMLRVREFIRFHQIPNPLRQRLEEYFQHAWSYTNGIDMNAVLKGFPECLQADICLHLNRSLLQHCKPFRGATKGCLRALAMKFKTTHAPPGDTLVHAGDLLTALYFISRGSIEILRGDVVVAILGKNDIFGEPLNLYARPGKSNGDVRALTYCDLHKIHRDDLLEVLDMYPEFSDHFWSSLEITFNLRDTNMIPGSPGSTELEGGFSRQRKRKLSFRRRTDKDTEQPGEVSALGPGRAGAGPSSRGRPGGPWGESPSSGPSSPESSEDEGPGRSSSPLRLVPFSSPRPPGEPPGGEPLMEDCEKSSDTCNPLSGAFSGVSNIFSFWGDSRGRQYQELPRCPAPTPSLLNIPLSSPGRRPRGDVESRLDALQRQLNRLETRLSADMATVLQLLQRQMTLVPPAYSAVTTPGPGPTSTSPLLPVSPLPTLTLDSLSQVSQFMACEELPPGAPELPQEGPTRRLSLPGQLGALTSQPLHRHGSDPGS
Experiment: in vitro
Parameters: Eurofins SafetyScreen44 radioligand binding displacement, percent inhibition, duplicate
Settings: radioligand binding

- compound: "Cc1c(CC(=O)O)c(=O)oc2c(C)c(OCc3cccc(I)c3)ccc12 [4az (in ref. 19), DRAinh-A270]"
  units-symbol: "%"
  inhibition at 10 µM: 19
